Molecular target: IL-17A (agonist in the IL-17RA/IL17RC dimerization assay) (UniProt Q16552 24-155)
Sequence (Q16552 24-155 limits assumed): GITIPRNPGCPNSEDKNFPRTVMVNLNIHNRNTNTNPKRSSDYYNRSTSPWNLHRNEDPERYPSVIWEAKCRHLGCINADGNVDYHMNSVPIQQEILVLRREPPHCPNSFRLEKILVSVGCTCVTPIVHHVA
Test: cell-based or functional assay
ENDPOINT_LABEL: IC50 in IL-17RA/IL7RC dimerization assay

[[record]]
binder = "Ac-VHVTIPANLWEWVRR-NH2 [peptide of SEQ ID NO: 116]"
endpoint_label = "IC50 in IL-17RA/IL7RC dimerization assay"
data_value = "< 500 nM"

[[record]]
binder = "Ac-IMVTIPADLWDWINK-NH2 [peptide of SEQ ID NO: 3]"
endpoint_label = "IC50 in IL-17RA/IL7RC dimerization assay"
data_value = "< 400 nM"

[[record]]
binder = "Ac-IHVTIPADLWDWIRK-NH2 [peptide of SEQ ID NO: 9]"
endpoint_label = "IC50 in IL-17RA/IL7RC dimerization assay"
data_value = "< 300 nM"

[[record]]
binder = "Ac-IHVTYPADLWDWINK-NH2 [peptide of SEQ ID NO: 185]"
endpoint_label = "IC50 in IL-17RA/IL7RC dimerization assay"
data_value = "< 10000 nM"


Entry source: patent US20220112244A1
